meta.source: ChEMBL document CHEMBL1140218

Reported values of Survival for individual entries
Test system: Plasmodium yoelii nigeriensis
Assay: Antimalarial activity as survival time against multidrug-resistant Plasmodium yoelii nigeriensis in Swiss mice (Mus musculus) at 96 mg/kg peroral dose for 4 days
Type: functional
Conditions: route oral

Some molecules with known Survival results, for comparison:
molecule | Survival
CCO[C@@H]1C[C@@H]2CC[C@@H](C)[C@@H]3CC[C@]4(C)OO[C@@]23[C@H](O1)O4 | >28 days
C=C(c1ccc(Oc2cc(Oc3ccc(C(=C)C4COC5(CCCC5)OO4)cc3)cc(Oc3ccc(C(=C)C4COC5(CCCC5)OO4)cc3)c2)cc1)C1COC2(CCCC2)OO1 (stereo not drawn) | 7.2 days
C=C(c1ccc(OCC(O)COc2ccc(C(=C)C3COC4(CCCCC4)OO3)cc2)cc1)C1COC2(CCCCC2)OO1 (stereo not drawn) | >28 days

**Query** What value of Survival has been recorded for this entry: C=C(c1ccc(Oc2ccc(C(=C)C3COC4(CCCC4)OO3)cc2)cc1)C1COC2(CCCC2)OO1 (stereo not drawn)
**Result** >28 days

**Query** Also C=C(c1ccc(OCCCOc2ccc(C(=C)C3COC4(CCCC4)OO3)cc2)cc1)C1COC2(CCCC2)OO1 (stereo not drawn) , if possible.
**Result** >28 days

**Query** Also C=C(c1ccc(Oc2ccc3ccc(Oc4ccc(C(=C)C5COC6(CCCC6)OO5)cc4)cc3c2)cc1)C1COC2(CCCC2)OO1 (stereo not drawn) , if possible.
**Result** 7.8 days

**Query** Also C=C(c1ccc(Oc2cc(Oc3ccc(C(=C)C4COC5(CCCCC5)OO4)cc3)cc(Oc3ccc(C(=C)C4COC5(CCCCC5)OO4)cc3)c2)cc1)C1COC2(CCCCC2)OO1 (stereo not drawn) , if possible.
**Result** 8.4 days

**Query** Also C=C(c1ccc(Oc2ccc(Oc3ccc(C(=C)C4COC5(CCCCC5)OO4)cc3)cc2)cc1)C1COC2(CCCCC2)OO1 (stereo not drawn) , if possible.
**Result** 8.6 days

**Query** Also C=C(c1ccc(Oc2cccc3c(Oc4ccc(C(=C)C5COC6(OO5)C5CC7CC(C5)CC6C7)cc4)cccc23)cc1)C1COC2(OO1)C1CC3CC(C1)CC2C3 (stereo not drawn) , if possible.
**Result** 7.4 days

**Query** Also C=C(c1ccc(Oc2cccc(C(=C)C3COC4(OO3)C3CC5CC(C3)CC4C5)c2)cc1)C1COC2(OO1)C1CC3CC(C1)CC2C3 (stereo not drawn) , if possible.
**Result** 7.6 days

**Query** Also C=C(c1ccc(Oc2cccc3c(Oc4ccc(C(=C)C5COC6(CCCCC6)OO5)cc4)cccc23)cc1)C1COC2(CCCCC2)OO1 (stereo not drawn) , if possible.
**Result** 8.2 days

**Query** Also C=C(c1ccc(OCCCOc2ccc(C(=C)C3COC4(OO3)C3CC5CC(C3)CC4C5)cc2)cc1)C1COC2(OO1)C1CC3CC(C1)CC2C3 (stereo not drawn) , if possible.
**Result** 7.4 days

**Query** Also C=C(c1ccc(Oc2ccc(C(=C)C3COC4(CCCCC4)OO3)cc2)cc1)C1COC2(CCCCC2)OO1 (stereo not drawn) , if possible.
**Result** >28 days
